test system: MALME-3M melanoma; experiment: NCI tumour cell line growth inhibition, 48 h; in the data active = GI50 below about 0.43 µM; inactive = the rest
Where a SMILES comes first, the peptide text is derived from it. The star is where a group is joined. Boc = CC(C)(C)OC(=O)*; OcHex = C1CCC(O*)CC1
Pick one and only one: active, inactive

Reference set, count: 8
* O=C(O)CN(CCN(CC(=O)O)CC(=O)O)CC(=O)O.[Mn+2] | inactive
* Cc1cnc(C(=O)NNc2nc3sc4c(c3c(=O)[nH]2)C(C)CCC4)cn1 (centres undefined) | inactive
* Nc1nccc(-c2c(-c3ccc(F)cc3)nn3cc(C(F)(F)F)ccc23)n1 | inactive
* CC(C)CC(NC(=O)OC(C)(C)C)C(=O)NC(CCC(=O)OC1CCCCC1)C(N)=O (stereo not drawn) (Boc-Leu-Glu(OcHex)-NH2; configuration not given here) | inactive
* O=C(Nc1ccc(OC(F)(F)Cl)cc1)c1cnc(N2CC[C@@H](O)C2)c(-c2ccn[nH]2)c1 | inactive
* S=C1SCN(Cc2ccccc2)CN1Cc1ccco1 | inactive
* Cc1cccc(Cn2cc(CO)c3cnccc32)c1 | inactive
* CCCCCCCCCCCCCCNC(=O)Nc1ccc(Cl)c(Cl)c1 | inactive

Here is another compound to look at.
Query: I'd appreciate the recorded outcome for CCCCCC(=O)O[C@]1(C(C)=O)CCC2C3CCC4=CC(=O)CC[C@]4(C)C3CC[C@@]21C (some centres undefined) from this test.
Reply: inactive

* * *

tested on: CCRF-CEM leukemia; experiment: NCI tumour cell line growth inhibition, 48 h
Assay metric: GI50

* C=CCN(CC=C)C(=O)c1cc(C)nc2c1c(=O)n(-c1ccccc1)c(=O)n2CCCN1CCN(c2ccccc2OC)CC1 | > 50000 nM

Below is a list of compounds. For each, state its recorded GI50.
1. C=C(C#N)C(=O)OCC(CC)CC.C=C(C#N)C(=O)OCC(CC)CC.CS(C)=O.CS(C)=O.Nc1c(N=Nc2ccc(-c3ccc(N=Nc4cc(S(=O)(=O)[O-])c5ccccc5c4N)cc3)cc2)cc(S(=O)(=O)[O-])c2ccccc12.[Pt+2]
2. CC(=O)NC1C(O[C@H]2C[C@H]3[C@@H]4CC=C5C[C@@H](O)CC[C@]5(C)[C@H]4CC[C@]3(C)[C@H]2[C@H](C)C(=O)CCC(C)C)OCC(O)C1O (stereo partly drawn)
3. ClCCOCCn1cnc2c(Cl)nc(Cl)nc21
4. C=C(CN1CCc2[nH]c3ccc(F)cc3c2C1)c1ccc(C(=O)Nc2ccccc2N)cc1

Reply:
1: 30700 nM; 2: 1250 nM; 3: 11700 nM; 4: 2520 nM

Required: GI50, one value per compound below.
1. Cc1cnc(C(=O)NNc2nc3sc4c(c3c(=O)[nH]2)C(C)CCC4)cn1 (stereo not drawn)
2. CCCCCC(=O)O[C@]1(C(C)=O)CCC2C3CCC4=CC(=O)CC[C@]4(C)C3CC[C@@]21C (stereo partly drawn)

Reply:
["671 nM", "2300 nM"]

Query: Form field: reported GI50 of Cc1ccc(NC(=O)c2cc(S(=O)(=O)Nc3nnc(-c4ccccc4)c(-c4ccccc4)n3)c(SCc3ccccc3)cc2Cl)cc1
Reply: 49500 nM

* * *

test system: TK-10 renal; test: NCI tumour cell line growth inhibition, 48 h
Exercise: state measured TGI for each of the compounds provided.

Sample answers from the record:
- O=c1[nH]c(N/N=C\C(O)C(O)C(O)C(O)CO)nc2ccccc12 (stereo unspecified): > 100 µM
- NNc1nnc(CCCCCCCCc2nnc(NN)n2N)n1N: > 100 µM

Would you be so kind as to report TGI for each listed record?
1. Cc1cc2nc3c(C#N)c(-c4ccccc4)/c(=C\Nc4ccc(F)cc4)c(=O)n3c2cc1C
2. CCO/C=C1\SC(=S)N(c2ccc(OCC)cc2)C1=O
3. C1CSCCSCCCS[C@@H]2CCCCC2SC1 (stereo partly specified)
4. CSc1nc2nc(-c3ccccc3)c(C)c-2c2n1C(C)C(=O)N2 (stereo unspecified)
5. COc1cc(/C=C2\NC(=O)C(Cc3cc(OC)c(OC)c(C)c3OC)N(C(C)=O)C2=O)c(OC)c(C)c1OC (stereo unspecified)
6. C1CCC(N=C2N(C3CCCCC3)C(=NC3CCCCC3)N2C2CCCCC2)CC1
7. COc1ccc(/C=C2\CCC/C(=C\c3ccc(OC)c(OC)c3)C2=O)cc1OC

Reply:
> 100 µM
> 100 µM
> 100 µM
> 100 µM
> 100 µM
> 100 µM
7.33 µM

// batch mode: one TGI value per listed entry
1. Cc1c(C)c2c(c(N)c1C#N)C(=O)N(Cc1ccc(S(N)(=O)=O)cc1)C2=O
2. COc1ccc(/C=C2\C(=O)N(NC(C)=O)c3ccccc32)cc1

Reply:
["99.7 µM", "> 100 µM"]
